This collection of values is drawn from ChEMBL document CHEMBL5356996.

- measurement-notes: Plasma protein binding in mouse by equilibrium dialysis method
- Assay type: ADME, cell-free
- experimental-parameters: read-out: PPB (converted)

# cpd-smiles, fraction unbound
data = [
    ("Cc1ccc(C(F)(F)F)cc1Nc1nc(C(=O)NS(=O)(=O)N2CCCOCC2)co1", 0.062),
]

====

- measurement-notes: Lipophilicity, logD of the compound
- Format: physicochemical
- experimental-parameters: octanol/water
value-kind: logD

# cpd-smiles, assay-result
records = [
    ("CC(C)c1ccc2c(c1Nc1nc(C(=O)NS(=O)(=O)N(C)C)co1)CCC2", 2.9),
    ("Cc1ccc(C(F)(F)F)cc1Nc1nc(C(=O)NS(=O)(=O)N(C)C)co1", 2.4),
    ("Cc1ccc(C(C)(C)C)cc1Nc1nc(C(=O)NS(=O)(=O)N(C)C)co1", 3),
    ("Cc1ccc(C(F)(F)F)nc1Nc1nc(C(=O)NS(=O)(=O)N(C)C)co1", 2.1),
    ("CN1CCN(C(=O)c2cnc(Nc3c4c(cc5c3CCC5)CCC4)o2)S1(=O)=O", 3.8),
]

====

- measurement-notes: Total body clearance in Sprague-Dawley rat at 0.3 mg/kg, iv measured for 25 hrs
- Type: ADME, organism-based
- experimental-parameters: in vivo

# cpd-smiles, clearance / mL/min/kg
rows = [
    ("Cc1ccc(C(F)(F)F)cc1Nc1nc(C(=O)NS(=O)(=O)N2CCCOCC2)co1", 1),
]

====

- measurement-notes: Metabolic stability in mouse liver microsomes assessed as compound remaining incubated for 60 mins
- Assay type: ADME, Microsome
- experimental-parameters: read-out: Stability

# cpd-smiles, remaining at 1 h
measured = [
    ("Cc1ccc(C(F)(F)F)cc1Nc1nc(C(=O)NS(=O)(=O)N2CCCOCC2)co1", "45.5%"),
]

====

- measurement-notes: Apparent permeability of the compound in human Caco-2 cells at 25 umol/L incubated for 2 hrs by LC/MS/MS analysis
- Format: ADME, cell-based
- experimental-parameters: dose 25 µmol/L
Decision: Papp at 2 h, 25 µM beneath 20 ×10⁻⁶ cm/s gives Met; Papp at 2 h, 25 µM meeting or exceeding 20 ×10⁻⁶ cm/s gives Not met.

# cpd-smiles, classification
measured = [
    ("CS(=O)(=O)NC(=O)c1cnc(Nc2c3c(cc4c2CCC4)CCC3)o1", "Met"),
    ("CN(C)S(=O)(=O)NC(=O)c1coc(Nc2c3c(cc4c2CCC4)CCC3)n1", "Not met"),
    ("CN1CCN(C(=O)c2cnc(Nc3c4c(cc5c3CCC5)CCC4)o2)S1(=O)=O", "Met"),
    ("CN(C)S(=O)(=O)NC(=O)c1cnc(Nc2c3c(cc4c2CCC4)CCC3)o1", "Met"),
    ("O=C(O)c1cnc(Nc2c3c(cc4c2CCC4)CCC3)o1", "Met"),
    ("Cc1ccc(C(F)(F)F)cc1Nc1nc(C(=O)NS(=O)(=O)N2CCCOCC2)co1", "Not met"),
]

====

- measurement-notes: Metabolic stability in human liver microsomes assessed as compound remaining incubated for 60 mins
- Type: ADME, Microsome
- experimental-parameters: read-out: Stability
value-kind: remaining at 1 h

# cpd-smiles, value-kind, assay-result
records = [
    ("Cc1ccc(C(F)(F)F)cc1Nc1nc(C(=O)NS(=O)(=O)N2CCCOCC2)co1", "remaining at 1 h", "71.2%"),
]

====

- measurement-notes: Cmax in Sprague-Dawley rat at 1 mg/kg, po measured for 25 hrs
- Assay type: ADME, organism-based
- Design: dose 1 mg/kg, time 25 hrs, route po
- experimental-parameters: in vivo

# cpd-smiles, display-unit, Cmax
measured = [
    ("Cc1ccc(C(F)(F)F)cc1Nc1nc(C(=O)NS(=O)(=O)N2CCCOCC2)co1", "µM", 3.8),
]

====

- target-under-test: Cytochrome P450 3A4 (Homo sapiens, UniProt P08684)
- Sequence (P08684 whole entry): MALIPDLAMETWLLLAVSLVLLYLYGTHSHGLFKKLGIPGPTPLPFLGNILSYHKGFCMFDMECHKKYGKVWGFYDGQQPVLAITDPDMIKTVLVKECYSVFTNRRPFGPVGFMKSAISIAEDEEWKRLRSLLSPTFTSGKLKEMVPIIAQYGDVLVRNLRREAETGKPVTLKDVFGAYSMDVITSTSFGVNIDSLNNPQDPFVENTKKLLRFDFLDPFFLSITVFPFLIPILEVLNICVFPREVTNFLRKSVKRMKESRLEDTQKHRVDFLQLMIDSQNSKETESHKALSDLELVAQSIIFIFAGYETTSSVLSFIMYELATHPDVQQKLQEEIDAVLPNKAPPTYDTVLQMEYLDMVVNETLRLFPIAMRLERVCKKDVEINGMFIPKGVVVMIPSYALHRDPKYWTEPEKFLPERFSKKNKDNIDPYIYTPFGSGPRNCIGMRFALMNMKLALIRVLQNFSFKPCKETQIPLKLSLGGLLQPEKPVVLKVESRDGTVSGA

# cpd-smiles, target-under-test, IC50
rows = [
    ("Cc1ccc(C(F)(F)F)cc1Nc1nc(C(=O)NS(=O)(=O)N2CCCOCC2)co1", "Cytochrome P450 3A4 (Homo sapiens, UniProt P08684)", "> 10 µM"),
]

====

Listed here: items and their measured logD.
- measurement-notes: Lipophilicity, logD of the compound
- Assay type: physicochemical
- experimental-parameters: octanol/water

# cpd-smiles, logD
records = [
    ("Cc1ccc(C)c(Nc2nc(C(=O)NS(=O)(=O)N(C)C)co2)c1", 2),
    ("CC(=O)N1CCCN(S(=O)(=O)NC(=O)c2coc(Nc3cc(C(F)(F)F)ccc3C)n2)CC1", 2.2),
    ("CCOC(=O)c1cnc(Nc2c3c(cc4c2CCC4)CCC3)o1", 4.6),
    ("O=C(O)c1cnc(Nc2c3c(cc4c2CCC4)CCC3)o1", 1.8),
    ("Cc1ccc(C(F)(F)F)cc1Nc1nc(C(=O)NS(=O)(=O)N(C)C(C)C)co1", 3.3),
    ("Cc1ccc(C2CCC2)cc1Nc1nc(C(=O)NS(=O)(=O)N(C)C)co1", 2.9),
    ("Cc1ccc(C(F)(F)F)cc1Nc1nc(C(=O)NS(=O)(=O)N2CCCCC2)co1", 3.1),
    ("Cc1ccc(C(F)(F)F)cc1Nc1nc(C(=O)NS(=O)(=O)N2CCCN(S(C)(=O)=O)CC2)co1", 2.4),
    ("Cc1ccc2c(c1Nc1nc(C(=O)NS(=O)(=O)N(C)C)co1)CCC2", 2.3),
    ("Cc1ccc(C(C)C)cc1Nc1nc(C(=O)NS(=O)(=O)N(C)C)co1", 2.7),
]

====

- measurement-notes: Lipophilicity, logD of the compound
- Type: physicochemical
- experimental-parameters: octanol/water
value-kind: logD

# cpd-smiles, value-kind, assay-result
records = [
    ("Cc1ccc(C(F)(F)F)cc1Nc1nc(C(=O)NS(=O)(=O)N2CCOCC2)co1", "logD", 2.2),
    ("CN(C)S(=O)(=O)NC(=O)c1cnc(Nc2c3c(cc4c2CCC4)CCC3)o1", "logD", 2.3),
    ("CS(=O)(=O)NC(=O)c1cnc(Nc2c3c(cc4c2CCC4)CCC3)o1", "logD", 2.1),
    ("CN(C)S(=O)(=O)NC(=O)c1coc(Nc2c3c(cc4c2CCC4)CCC3)n1", "logD", 2.8),
    ("Cc1ccc(C(F)(F)F)cc1Nc1nc(C(=O)NS(=O)(=O)N2CCCOCC2)co1", "logD", 2.4),
]

====

- target-under-test: NACHT, LRR and PYD domains-containing protein 3 (Homo sapiens)
- Sequence (Q96P20 whole entry, the tested form may be a part): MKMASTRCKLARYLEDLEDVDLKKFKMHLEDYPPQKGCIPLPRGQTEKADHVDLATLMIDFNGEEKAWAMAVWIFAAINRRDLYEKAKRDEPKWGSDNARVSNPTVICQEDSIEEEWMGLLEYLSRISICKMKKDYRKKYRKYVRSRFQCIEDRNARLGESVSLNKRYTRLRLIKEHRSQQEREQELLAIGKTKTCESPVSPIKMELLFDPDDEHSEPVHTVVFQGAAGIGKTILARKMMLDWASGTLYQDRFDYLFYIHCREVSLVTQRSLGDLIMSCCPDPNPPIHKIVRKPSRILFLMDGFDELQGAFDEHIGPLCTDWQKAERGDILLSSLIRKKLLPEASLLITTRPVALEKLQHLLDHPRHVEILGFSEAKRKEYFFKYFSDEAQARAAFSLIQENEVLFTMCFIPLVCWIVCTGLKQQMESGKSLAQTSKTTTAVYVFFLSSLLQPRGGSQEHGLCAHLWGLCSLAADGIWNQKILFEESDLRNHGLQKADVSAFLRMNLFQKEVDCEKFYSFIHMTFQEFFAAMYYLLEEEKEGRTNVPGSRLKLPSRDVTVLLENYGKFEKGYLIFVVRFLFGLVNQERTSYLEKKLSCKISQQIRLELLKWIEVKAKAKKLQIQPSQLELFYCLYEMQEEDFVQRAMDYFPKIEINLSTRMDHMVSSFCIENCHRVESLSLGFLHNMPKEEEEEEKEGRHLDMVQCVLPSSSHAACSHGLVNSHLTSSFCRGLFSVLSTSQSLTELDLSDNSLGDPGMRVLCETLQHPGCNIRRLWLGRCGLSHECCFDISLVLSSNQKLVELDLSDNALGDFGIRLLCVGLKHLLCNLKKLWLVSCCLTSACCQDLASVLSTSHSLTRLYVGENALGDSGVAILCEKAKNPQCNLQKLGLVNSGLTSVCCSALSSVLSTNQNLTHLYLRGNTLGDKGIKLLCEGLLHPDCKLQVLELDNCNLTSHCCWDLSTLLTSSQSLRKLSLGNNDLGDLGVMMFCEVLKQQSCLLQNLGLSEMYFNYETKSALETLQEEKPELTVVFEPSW
- measurement-notes: Inhibition of NLRP3 in human whole blood assessed as inhibition of IL-1beta production pretreated with LPS for 3 hrs followed by incubation with compound for 0.5 hrs and later incubated with ATP for 1.5 hrs by AlphaLISA assay
- Format: tissue-based
Mark label 1 only when IC50 stays strictly below 8 µM. Values equal to the cut-off are label 0.

# cpd-smiles, classification
rows = [
    ("Cc1ccc(C(F)(F)F)nc1Nc1nc(C(=O)NS(=O)(=O)N(C)C)co1", "label 1"),
    ("Cc1ccc(C)c(Nc2nc(C(=O)NS(=O)(=O)N(C)C)co2)c1", "label 0"),
    ("Cc1ccc(C(C)(C)C)cc1Nc1nc(C(=O)NS(=O)(=O)N(C)C)co1", "label 1"),
    ("Cc1ccc(C(C)C)cc1Nc1nc(C(=O)NS(=O)(=O)N(C)C)co1", "label 1"),
    ("CC(C)c1ccc2c(c1Nc1nc(C(=O)NS(=O)(=O)N(C)C)co1)CCC2", "label 1"),
    ("Cc1ccc2c(c1Nc1nc(C(=O)NS(=O)(=O)N(C)C)co1)CCC2", "label 0"),
]

====

- measurement-notes: Mean residence time in Sprague-Dawley rat at 0.3 mg/kg, iv
- Format: ADME, organism-based
- experimental-parameters: in vivo
value-kind: MRT

# cpd-smiles, assay-result
measured = [
    ("Cc1ccc(C(F)(F)F)cc1Nc1nc(C(=O)NS(=O)(=O)N2CCCOCC2)co1", "4.7 h"),
]

====

- measurement-notes: Metabolic stability in rat liver microsomes assessed as compound remaining incubated for 60 mins
- Type: ADME, Microsome
- experimental-parameters: read-out: Stability

# cpd-smiles, remaining at 1 h, %
measured = [
    ("Cc1ccc(C(F)(F)F)cc1Nc1nc(C(=O)NS(=O)(=O)N2CCCOCC2)co1", 90.3),
]

====

// reported fraction unbound for each item listed
- measurement-notes: Plasma protein binding in human by equilibrium dialysis method
- Assay type: ADME, cell-free
- experimental-parameters: read-out: PPB (converted)

# cpd-smiles, operator, fraction unbound
measured = [
    ("Cc1ccc(C(F)(F)F)cc1Nc1nc(C(=O)NS(=O)(=O)N2CCCN(S(C)(=O)=O)CC2)co1", "=", 0.011),
    ("Cc1ccc(C(F)(F)F)cc1Nc1nc(C(=O)NS(=O)(=O)N2CCOCC2)co1", "<", 0.001),
    ("Cc1ccc(C(F)(F)F)cc1Nc1nc(C(=O)NS(=O)(=O)N2CCCOCC2)co1", "=", 0.009),
    ("Cc1ccc(C(F)(F)F)cc1Nc1nc(C(=O)NS(=O)(=O)N(C)C)co1", "=", 0.004),
    ("Cc1ccc(C(F)(F)F)cc1Nc1nc(C(=O)NS(=O)(=O)N(C)C(C)C)co1", "<", 0.001),
    ("Cc1ccc(C(F)(F)F)cc1Nc1nc(C(=O)NS(=O)(=O)N2CCCCC2)co1", "<", 0.001),
    ("CC(=O)N1CCCN(S(=O)(=O)NC(=O)c2coc(Nc3cc(C(F)(F)F)ccc3C)n2)CC1", "=", 0.018),
]
